# TEST_SYSTEM: T1, mouse EGFL7 (mEGFL7-CB-His) (mouse, UniProt Q9QXT5 22-275)
# T1 sequence: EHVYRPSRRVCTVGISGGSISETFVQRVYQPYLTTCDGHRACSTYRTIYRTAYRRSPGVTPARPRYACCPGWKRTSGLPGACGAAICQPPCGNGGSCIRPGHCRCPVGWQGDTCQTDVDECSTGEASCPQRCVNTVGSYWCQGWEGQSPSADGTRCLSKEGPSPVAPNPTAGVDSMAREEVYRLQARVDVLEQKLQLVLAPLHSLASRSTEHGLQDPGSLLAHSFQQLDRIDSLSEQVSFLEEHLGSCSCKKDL
# ASSAY_PROTOCOL: SPR (Biacore), IgG over immobilized mEGFL7-CB at 37 C;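 further: IgG injected as twofold series from 0.5 to 1000 nM, 3 min association and 3.5 min dissociation, reference flow cell subtracted, kinetics fitted to 1:1 Langmuir model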
VALUE_TYPE: Kd (nM)

• 18F7.v8 IgG (antibody, V domains shown, IgG; Kabat numbering) VH: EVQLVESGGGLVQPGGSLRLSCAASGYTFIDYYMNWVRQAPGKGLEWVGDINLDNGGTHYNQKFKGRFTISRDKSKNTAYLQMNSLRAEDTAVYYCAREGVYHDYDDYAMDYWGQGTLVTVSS VL: DIQMTQSPSSLSASVGDRVTITCRTSQSLVHINGITYLHWYQQKPGKAPKLLIYRVSNRFSGVPSRFSGSGSGTDFTLTISSLQPEDFATYYCVQSTHVPLTFGQGTKVEIK = 2.04
• 18F7.v6 IgG (antibody, V domains shown, IgG; also called hu18F7.v6) VH: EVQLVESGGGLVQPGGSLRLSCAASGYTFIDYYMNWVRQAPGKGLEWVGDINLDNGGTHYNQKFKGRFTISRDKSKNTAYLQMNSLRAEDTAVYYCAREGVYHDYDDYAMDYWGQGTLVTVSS VL: DIQMTQSPSSLSASVGDRVTITCRTSQSLVHINGITYLHWYQQKPGKAPKLLIYRVSNRFSGVPSRFSGSGSGTDFTLTISSLQPEDFATYYCGQSTHVPLTFGQGTKVEIKR = 0.408
• 18F7.v2 IgG (antibody, name in Kabat numbering, V domains shown, IgG; Kabat numbering; also called 18F7-K) VH: EVQLVESGGGLVQPGGSLRLSCAASGYTFIDYYMNWVRQAPGKGLEWVGDINLDNGGTHYNQKFKGRFTISRDKSKNTLYLQMNSLRAEDTAVYYCAREGVYHDYDDYAMDYWGQGTLVTVSS VL: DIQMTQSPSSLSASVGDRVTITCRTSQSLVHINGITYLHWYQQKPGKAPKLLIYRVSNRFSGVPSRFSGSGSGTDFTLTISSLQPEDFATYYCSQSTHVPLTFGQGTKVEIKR = 1.81
• 18F7.v5 IgG (antibody, V domains shown, IgG; Kabat numbering) VH: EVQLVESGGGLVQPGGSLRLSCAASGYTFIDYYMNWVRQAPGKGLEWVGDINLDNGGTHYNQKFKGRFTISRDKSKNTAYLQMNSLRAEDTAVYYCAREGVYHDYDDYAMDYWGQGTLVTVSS VL: DIQMTQSPSSLSASVGDRVTITCRTSQSLVHINGITYLHWYQQKPGKAPKLLIYRVSNRGSGVPSRFSGSGSGTDFTLTISSLQPEDFATYYCSQSTHVPLTFGQGTKVEIK = 1.61
• 18F7.v6J IgG (antibody, V domains shown, IgG; Variant of 18F7.v6) VH: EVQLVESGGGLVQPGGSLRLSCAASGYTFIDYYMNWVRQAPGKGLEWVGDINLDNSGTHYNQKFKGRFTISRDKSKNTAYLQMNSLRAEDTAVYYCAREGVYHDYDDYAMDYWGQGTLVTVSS VL: DIQMTQSPSSLSASVGDRVTITCRTSQSLVHINSITYLHWYQQKPGKAPKLLIYRVSNRFSGVPSRFSGSGSGTDFTLTISSLQPEDFATYYCGQSTHVPLTFGQGTKVEIK = 0.8
• 18F7.v6K IgG (antibody, V domains shown, IgG; also called hu18F7.v6k; h18F7.v6k) VH: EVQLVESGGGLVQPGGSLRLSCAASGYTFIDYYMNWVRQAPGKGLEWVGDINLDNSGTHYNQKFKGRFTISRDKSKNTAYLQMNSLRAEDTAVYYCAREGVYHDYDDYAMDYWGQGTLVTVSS VL: DIQMTQSPSSLSASVGDRVTITCRTSQSLVHINAITYLHWYQQKPGKAPKLLIYRVSNRFSGVPSRFSGSGSGTDFTLTISSLQPEDFATYYCGQSTHVPLTFGQGTKVEIKR = 1.6
• 18F7.v7 IgG (antibody, V domains shown, IgG; Kabat numbering) VH: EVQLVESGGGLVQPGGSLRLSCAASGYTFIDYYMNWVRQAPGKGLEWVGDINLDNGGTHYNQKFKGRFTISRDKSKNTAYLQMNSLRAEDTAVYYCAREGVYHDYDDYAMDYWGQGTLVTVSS VL: DIQMTQSPSSLSASVGDRVTITCRTSQSLVHINGITYLHWYQQKPGKAPKLLIYRVSNRFSGVPSRFSGSGSGTDFTLTISSLQPEDFATYYCAQSTHVPLTFGQGTKVEIK = 1.38
• 18F7.v4 IgG (antibody, name in Kabat numbering, V domains shown, IgG; Kabat numbering; also called 18F7-KV) VH: EVQLVESGGGLVQPGGSLRLSCAASGYTFIDYYMNWVRQAPGKGLEWVGDINLDNGGTHYNQKFKGRFTISRDKSKNTVYLQMNSLRAEDTAVYYCAREGVYHDYDDYAMDYWGQGTLVTVSS VL: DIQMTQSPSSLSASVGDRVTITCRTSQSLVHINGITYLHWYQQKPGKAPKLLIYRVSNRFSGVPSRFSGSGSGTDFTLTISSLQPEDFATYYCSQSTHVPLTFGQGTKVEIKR = 4.15
